- target.of.assay: PfCSP full length (Plasmodium falciparum (isolate NF54), UniProt P19597)
- Sequence (P19597 20-375): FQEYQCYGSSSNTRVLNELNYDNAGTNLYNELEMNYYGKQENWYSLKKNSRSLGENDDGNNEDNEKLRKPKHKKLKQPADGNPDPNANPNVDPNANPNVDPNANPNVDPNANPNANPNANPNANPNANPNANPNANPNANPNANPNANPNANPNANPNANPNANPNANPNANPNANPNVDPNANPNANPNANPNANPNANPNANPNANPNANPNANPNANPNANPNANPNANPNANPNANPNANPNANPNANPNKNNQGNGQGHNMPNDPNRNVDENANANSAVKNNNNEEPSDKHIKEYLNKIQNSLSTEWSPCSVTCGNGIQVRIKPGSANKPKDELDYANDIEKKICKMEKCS
- method.summary: ELISA AUC
recorded.endpoint: binding score
# answer = number (no unit)

Known results for binders:
# binder, binding score
data = [
    ("CL-531912 (antibody, V domains shown, peptides N-terminally acetylated and C-terminally amidated) VH: LVQLVESGGGVVQPGRSLRLSCAASGFTFSSSGMHWVRQAPGKGLEWVAIIWYDGSNKFYADSVKGRFTISRDNSKNTLYLQMNSLRAEDTAVYYCARAYVSGSHGDKYGMDVWGQGTTVTVSS VL: DIQMTQSPSTLSASVGDRVTITCRASQSISSWLAWFQQKPGKAPKLLIYKASSLESGVPSRFSGSGSGTEFTLTINSLQPDDFATYFCQQYNNYWTFGQGTKVEIK", 2.64),
    ("CL-513617 (antibody, V domains shown, peptides N-terminally acetylated and C-terminally amidated) VH: QVQLVESGGGVVQPGRSLRLSCAASGFIFSNYGMYWVRQTPDKGLEWVALIWYDGGNKFYSDSVKGRFTVSRDNSKNTLYLQMNSLRDEDTALYYCARAGYFYGSGSSLDKWGQGTLVTVSS VL: DIQMTQSPSTLSASVGDRVSITCRASQSISIWLAWYQQKPGKAPKLLIYKASSLESGVPSRFSGSGSGTEFSLTISSLQPDDFATYYCQQYNRYWTFGQGTKVEIK", 2.59),
    ("CL-513274 (antibody, V domains shown, peptides N-terminally acetylated and C-terminally amidated) VH: QVQLVESGGGVVQPGRSLRVSCAASGFTFSNYGMYWVRQAPGKGLEWVALIWHDGSNKFYEDSVKGRFTISRDNSKNTLYLQMNSLRAEDTAVYYCARAGYFQGSGSFLDYWGQGTLVTVSS VL: DIQMTQSPSTLSASVGDRVTITCRASQSISTWLAWYQQKPGKAPKLLIYKASSLESGVPSRFSGSGSGTEFTLTISSLQPDDFATYFCQQYSSYWTFGQGTKVEIK", 2.23),
    ("CL-512761 (antibody, V domains shown, peptides N-terminally acetylated and C-terminally amidated) VH: QVQLVESGGGVVQPGTSLRLSCAASGFTFSNYGMHWVRQAPGKGLEWVSITWYDESNKFYADSVKGRFTISRDNSKNTLYLQMNSLRAEDTAVYYCARAYDTLTGYRAQKYGMDVWGQGTTVTVSS VL: DIQMTQSPSTLSASVGDRVTITCRASQRISTWLAWYQQKPGKAPKLLINEASRLESGVPSRFSGSGSGTEFTLTISSLQPDDFATYYCQQYNSYWTFGQGTKVEIK", 2.17),
]

Continue with the binder presented below.
Inquiry: Value lookup for binding score; key = CL-509494 (antibody, V domains shown, peptides N-terminally acetylated and C-terminally amidated) VH: QVQLVESGGGVVQPGRSLRLSCAASGFTFSNFGMHWVRQSPGRGLEWVAIIWYDGSHKFYADSVKGRFTISRDNSKNTLYLQMNSLRAEDTAVYYCAKSEQRTNDHYYKYGMDVWGQGTTVTVST VL: DIQMTQSPSTLSASVGDRVTITCRASQSISSWLAWYQQKPGKAPTLLIYKASSLESGVPSRFSGSGSGTEFTLTISSLQPDDFATYYCQQYTNYWTFGQGTKVEIK
Reply text: 1.93
